assayedSystem: UniProt:P41594
Sequence (P41594 21-1212 limits assumed): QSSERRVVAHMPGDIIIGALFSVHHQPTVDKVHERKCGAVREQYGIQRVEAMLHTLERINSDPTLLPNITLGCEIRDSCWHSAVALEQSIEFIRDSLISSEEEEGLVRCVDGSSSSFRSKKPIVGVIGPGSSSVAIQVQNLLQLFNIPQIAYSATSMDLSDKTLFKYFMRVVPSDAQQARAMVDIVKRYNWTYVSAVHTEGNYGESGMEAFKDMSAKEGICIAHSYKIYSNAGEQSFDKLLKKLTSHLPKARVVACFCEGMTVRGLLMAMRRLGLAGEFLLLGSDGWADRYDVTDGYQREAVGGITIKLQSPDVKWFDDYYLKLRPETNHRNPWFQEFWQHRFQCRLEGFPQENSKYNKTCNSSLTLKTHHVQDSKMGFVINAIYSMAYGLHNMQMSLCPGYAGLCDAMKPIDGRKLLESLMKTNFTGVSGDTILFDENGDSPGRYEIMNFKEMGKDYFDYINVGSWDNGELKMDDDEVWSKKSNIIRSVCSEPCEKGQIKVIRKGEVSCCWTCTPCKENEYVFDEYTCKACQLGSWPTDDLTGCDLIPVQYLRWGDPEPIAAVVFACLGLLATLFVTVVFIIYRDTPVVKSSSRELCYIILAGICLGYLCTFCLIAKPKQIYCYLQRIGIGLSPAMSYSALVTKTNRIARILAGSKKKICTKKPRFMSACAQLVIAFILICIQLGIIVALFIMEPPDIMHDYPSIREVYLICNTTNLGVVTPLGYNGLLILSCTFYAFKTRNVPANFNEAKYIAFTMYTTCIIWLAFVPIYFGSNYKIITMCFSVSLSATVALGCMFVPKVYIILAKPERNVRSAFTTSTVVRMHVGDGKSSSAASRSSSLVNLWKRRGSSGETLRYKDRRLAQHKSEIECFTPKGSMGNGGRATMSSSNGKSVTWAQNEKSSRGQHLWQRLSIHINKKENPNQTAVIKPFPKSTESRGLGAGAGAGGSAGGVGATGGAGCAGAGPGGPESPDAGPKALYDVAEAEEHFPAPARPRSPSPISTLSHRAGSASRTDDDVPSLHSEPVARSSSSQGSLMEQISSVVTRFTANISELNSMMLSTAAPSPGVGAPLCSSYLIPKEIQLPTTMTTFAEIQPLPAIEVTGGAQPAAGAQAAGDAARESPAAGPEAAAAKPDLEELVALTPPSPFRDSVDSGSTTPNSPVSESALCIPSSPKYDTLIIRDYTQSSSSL
testProtocol: Negative allosteric modulator activity at mGluR5 receptor expressed in HEK293A cells assessed as maximum glutamate-induced response preincubated for 140 secs before glutamate challenge by calcium fluorescence assay
Format: functional, cell-based
measurementConditions: HEK293-A
Each entry below lists one item and its recorded Activity value.

mol: Cc1cccc(-c2noc([C@H]3CCCCN3C(=O)c3ccc(F)c(F)c3)n2)c1
Activity (%): 46
--
mol: O=C(C1CCC1)N1CCC[C@H](c2nc(-c3cccc(Cl)c3)no2)C1
Activity (%): 2.4
--
mol: COc1cccc(-c2noc([C@H]3CCCN(C(=O)C4CCC4)C3)n2)c1
Activity (%): 2.1

---

assayedSystem: Metabotropic glutamate receptor 5 (Rattus norvegicus, UniProt P31424)
Sequence (P31424 whole entry, looked up): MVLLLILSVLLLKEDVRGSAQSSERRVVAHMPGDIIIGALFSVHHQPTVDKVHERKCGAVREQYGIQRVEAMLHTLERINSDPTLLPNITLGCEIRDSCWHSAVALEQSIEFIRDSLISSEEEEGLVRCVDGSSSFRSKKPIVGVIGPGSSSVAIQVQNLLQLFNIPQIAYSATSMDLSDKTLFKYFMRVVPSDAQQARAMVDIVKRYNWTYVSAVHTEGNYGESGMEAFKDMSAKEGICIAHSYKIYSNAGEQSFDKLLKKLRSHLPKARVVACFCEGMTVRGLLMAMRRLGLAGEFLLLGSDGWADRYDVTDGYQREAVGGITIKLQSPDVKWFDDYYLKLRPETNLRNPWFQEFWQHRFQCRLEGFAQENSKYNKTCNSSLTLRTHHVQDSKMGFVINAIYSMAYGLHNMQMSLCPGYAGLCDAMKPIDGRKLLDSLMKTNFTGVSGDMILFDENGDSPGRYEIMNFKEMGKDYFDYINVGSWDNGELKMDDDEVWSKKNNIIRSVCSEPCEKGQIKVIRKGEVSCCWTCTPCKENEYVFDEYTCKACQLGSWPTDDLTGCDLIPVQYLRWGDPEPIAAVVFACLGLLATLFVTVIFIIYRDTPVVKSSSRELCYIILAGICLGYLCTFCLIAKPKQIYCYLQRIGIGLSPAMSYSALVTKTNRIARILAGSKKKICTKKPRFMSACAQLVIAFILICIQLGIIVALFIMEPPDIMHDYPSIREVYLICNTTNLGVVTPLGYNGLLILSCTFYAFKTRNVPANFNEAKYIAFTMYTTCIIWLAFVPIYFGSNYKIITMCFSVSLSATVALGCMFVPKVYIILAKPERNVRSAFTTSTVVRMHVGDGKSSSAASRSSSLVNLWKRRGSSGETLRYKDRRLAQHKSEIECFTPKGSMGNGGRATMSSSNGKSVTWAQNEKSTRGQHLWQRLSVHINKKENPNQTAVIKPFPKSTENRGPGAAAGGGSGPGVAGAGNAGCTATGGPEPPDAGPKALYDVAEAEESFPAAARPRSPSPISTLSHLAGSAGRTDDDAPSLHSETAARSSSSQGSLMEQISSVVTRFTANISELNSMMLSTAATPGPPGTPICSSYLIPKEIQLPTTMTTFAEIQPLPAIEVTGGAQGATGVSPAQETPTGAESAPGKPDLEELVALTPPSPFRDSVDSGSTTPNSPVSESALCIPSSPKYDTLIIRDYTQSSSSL
testProtocol: Negative allosteric modulator activity at mGluR5 receptor expressed in HEK293A cells assessed as inhibition of glutamate-induced calcium flux preincubated for 140 secs before glutamate challenge by calcium fluorescence assay
Format: functional, cell-based, HEK293-A
recordedMetric: IC50 (µM)

compound: O=C(C1CCC1)N1CCCC1c1nc(-c2cccc(Cl)c2)no1 (racemic)
recordedMetric: IC50
number: 10
--
compound: COc1cccc(-c2noc([C@H]3CCCCN3C(=O)C3CCC3)n2)c1
recordedMetric: IC50
number: 0.3
--
compound: Cc1cccc(-c2noc([C@@H]3CCCCN3C(=O)C3CCC3)n2)c1
recordedMetric: IC50
number: 0.5
--
compound: O=C(C1CCC1)N1CCCC[C@H]1c1nc(-c2ccccn2)no1
recordedMetric: IC50
number: 10
--
compound: O=C(C1CCC1)N1CCC[C@H](c2nc(-c3cccs3)no2)C1
recordedMetric: IC50
number: 9.3

---

Each entry below lists one item and its recorded EC50 value.
assayedSystem: Metabotropic glutamate receptor 5 (Rattus norvegicus, UniProt P31424)
testProtocol: Positive allosteric modulator activity at mGluR5 receptor expressed in HEK293A cells assessed as effect on glutamate-induced calcium flux preincubated for 140 secs before glutamate challenge by calcium fluorescence assay
Assay type: functional, cell-based, HEK293-A

compound: O=C(C1CCCC1)N1CCCC1c1nc(-c2cccc(F)c2)no1 (stereo not drawn)
EC50 (nM): 1000
//
compound: O=C(C1CCC1)N1CCCC1c1nc(-c2cccc(F)c2)no1 (stereo in doubt; 24b)
EC50 (nM): 1500
//
compound: O=C(C1CCC1)N1CCCC[C@H]1c1nc(-c2cccc(F)c2)no1
EC50 (nM): 700

---

Each entry below lists one item and its recorded Activity value.
assayedSystem: Metabotropic glutamate receptor 5 (Homo sapiens)
testProtocol: Positive allosteric modulator activity at mGluR5 receptor expressed in HEK293A cells assessed as maximum glutamate-induced response preincubated for 140 secs before glutamate challenge by calcium fluorescence assay
Format: functional, cell-based
measurementConditions: HEK293-A

compound: O=C(C1CCC1)N1CCC[C@@H]1c1nc(-c2cccc(F)c2)no1
assayedSystem: Metabotropic glutamate receptor 5 (Homo sapiens)
Activity, %: 68.4
--
compound: O=C(c1ccc(F)cc1)N1CCCC[C@@H]1c1nc(-c2cccc(F)c2)no1
assayedSystem: Metabotropic glutamate receptor 5 (Homo sapiens)
Activity, %: 91
--
compound: O=C(C1CCC1)N1CCCC1c1nc(-c2cccc(F)c2)no1 (racemic)
assayedSystem: Metabotropic glutamate receptor 5 (Homo sapiens)
Activity, %: 64
--
compound: O=C(c1cccc(F)c1)N1CCCC[C@@H]1c1nc(-c2cccc(F)c2)no1
assayedSystem: Metabotropic glutamate receptor 5 (Homo sapiens)
Activity, %: 59
--
compound: O=C(c1ccc(F)c(F)c1)N1CCCC[C@@H]1c1nc(-c2cccc(F)c2)no1
assayedSystem: Metabotropic glutamate receptor 5 (Homo sapiens)
Activity, %: 93
--
compound: O=C(c1ccc(F)cc1F)N1CCCC[C@@H]1c1nc(-c2cccc(F)c2)no1
assayedSystem: Metabotropic glutamate receptor 5 (Homo sapiens)
Activity, %: 95
--
compound: O=C(c1ccc(F)c(F)c1)N1CCCC1c1nc(-c2cccc(F)c2)no1 (centres undefined)
assayedSystem: Metabotropic glutamate receptor 5 (Homo sapiens)
Activity, %: 62
--
compound: O=C(c1ccc(F)cc1F)N1CCCC1c1nc(-c2cccc(F)c2)no1 (centres undefined)
assayedSystem: Metabotropic glutamate receptor 5 (Homo sapiens)
Activity, %: 61
--
compound: O=C(C1CCC1)N1CCCC1c1nc(-c2ccc(F)cc2)no1 (racemic)
assayedSystem: Metabotropic glutamate receptor 5 (Homo sapiens)
Activity, %: 72
--
compound: O=C(c1ccc(F)cc1)N1CCCC1c1nc(-c2cccc(F)c2)no1 (centres undefined)
assayedSystem: Metabotropic glutamate receptor 5 (Homo sapiens)
Activity, %: 59
--
compound: O=C(C1CCCCC1)N1CCCC[C@@H]1c1nc(-c2cccc(F)c2)no1
assayedSystem: Metabotropic glutamate receptor 5 (Homo sapiens)
Activity, %: 58
--
compound: O=C(C1CCCC1)N1CCCC1c1nc(-c2cccc(F)c2)no1 (centres undefined)
assayedSystem: Metabotropic glutamate receptor 5 (Homo sapiens)
Activity, %: 75
--
compound: O=C(c1cccs1)N1CCCC1c1nc(-c2cccc(F)c2)no1 (centres undefined)
assayedSystem: Metabotropic glutamate receptor 5 (Homo sapiens)
Activity, %: 60
--
compound: O=C(c1cccs1)N1CCCC[C@@H]1c1nc(-c2cccc(F)c2)no1
assayedSystem: Metabotropic glutamate receptor 5 (Homo sapiens)
Activity, %: 34
